assay: protein stability index of a GFP-peptide fusion (GPS, HEK-293T) (PSI 1-6); higher = more stable; conditions: treatment: DMSO; c terminus: a fixed tail appended;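 also: 24-mer peptide tiles fused after GFP, lentivirally expressed, FACS-sorted into six equal bins by GFP/DsRed ratio, decoded by Illumina sequencing, PSI is the read-weighted mean bin number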
Each entry below lists one item and its recorded protein stability index value.

seq string | protein stability index
GCKGFFRRSMKRKALFTCPFNGDC [VDR] | 2.47
LPFGPFNGTAWTYHSQDELGGFSH [PKD2L1] | 2.41
ERQDMYQCLVEGCTEKFKTSRDRK [ZNF511] | 4.09
LGMVTPVNDLRGSDSIAYDKGEKL [ADD1] | 4.62
LYLFGGHHSRGNTNKFYMLDSRST [KLHDC2] | 2.16
IQDVVQPLTLQVQRPLVSVTVSDA [AUP1] | 3.56
LTSQNIEIKLVSDVTADSKVLEAL [PLD5] | 3.13
VDGRATQKLIVNLKPEKSYSFVLT [PTPRD] | 2.4
RKPGMSSTARRSRAASSQRAEEED [CHMP4C] | 5.38
KEEKEDEISLEDLIERERSALGPN [ZC3H15] | 5.31
SLVQLQASHQQQVLPPRQPSALVP [MYBL2] | 3.54
SYKIEEISPSTLKNSLFPSPISSI [KCNK9] | 2.6
TTTHAPPGVHRRYSALREESAKDW [PPFIA4] | 4.23

----------
assay: protein stability index of a GFP-peptide fusion (GPS, HEK-293T) (PSI 1-6); higher = more stable; conditions: treatment: MLN4924 1 uM, 8 h; c terminus: a fixed tail appended
Response field class: enum, chosen by comparing protein stability index against lowest = under 3, middle = from 3 up to 4, highest = 4 and over

seq string | classification
VKRKMDGREYPDAQGFAADVRLMF [BRD3] | lowest
QNPQITQLKIAANPFAKGFRENGR [TBX6] | middle
RKKEAKRKISSLSFTLEEEEEGGE [FAM50A] | highest
RQAELLEKRLQEIEELEREAERKI [SRPK2] | highest
SSNYFSPRESTDFSSSSQEAFAAS [ZBTB22] | highest
QRAPQLPTWWPLPTQVPAAEDYLT [SPAG8] | middle
AMELRHQGGEYLPKPEPPQLVLAY [FEM1A] | lowest
NLLEKFFEMKKGQCKDALEIYKRF [SNAP91] | lowest
KAFWKEDNALWERDRNLLQEDKAL [CCDC70] | highest
GGLLSYDEGGITKQPPVTQSKTAS [FBF1] | highest
FDRVDENNPEYLRERNMAPDLRQD [ADD1] | highest
ATTASPAKVDSSGVIDLFGDAFGS [SNAP91] | highest

----------
assay: protein stability index of a GFP-peptide fusion (GPS, HEK-293T) (PSI 1-6); higher = more stable; conditions: treatment: MLN4924 1 uM, 8 h; c terminus: native
Would you mind labelling by protein stability index? At or over 4 is label 1, under is label 0.

seq string | classification
RERIERVRRIHIKRPDDRAHLHQ [KCTD10] | label 1
PCYSRQFITSCPCWLEILLNNPR [SMAD6] | label 0
LDKNKIPYKGFIPEDLEAFIELH [FEM1A] | label 0
GLRAATMSAVEAATCRAKELSRK [PYCR3] | label 1
VVEEAKCCCFFKRKRKKTAQRHK [CSNK1G1] | label 1
MISTYEFGKSFFQRLNQDRLLGG [SLC25A39] | label 0
KVNLCGHWYYSKACCRSCRPPHS [ADAMTSL2] | label 0

----------
assay: protein stability index of a GFP-peptide fusion (GPS, HEK-293T) (PSI 1-6); higher = more stable; settings: treatment: MLN4924 1 uM, 8 h; c terminus: a fixed tail appended
Response field class: enum, chosen by comparing protein stability index against Low = under 3, Medium = from 3 up to 4, High = 4 and over

seq string | classification
ADPLRVSSRDKLTEMAASSQGNFE [FUNDC2] | High
LCLQLRDDIVSGRLPCSFVTLALL [EPB41L3] | Low
QGMEVDLVTGLAIEEACYAQTIPT [AUH] | Medium
TVVSVRGFEESEPLTGFLTTVPDG [TNXB] | Medium
PFREQSFLCAAGDAGEESRVQVLK [TIAF1] | High
KFSHSGRYMLTRDYLTVKVWDLNM [PPP2R2C] | Low
QIDQIKRHSNVVILTTSNITEKID [TRIP13] | Medium
LKLVAHPRAKSKVWKYFGFDTNAE [ZBED1] | Low
EPSSSKDSDENSKPSVDTEGPALV [MIA2] | High
LAGPNDRSDVEKGGKIIMPPSALD [UFD1] | High
DRFYVINYLVRLSFHNLKFDCSTA [ZNF277] | Low
IQDVVQPLTLQVQRPLVSVTVSDA [AUP1] | Medium

----------
assay: protein stability index of a GFP-peptide fusion (GPS, HEK-293T) (PSI 1-6); higher = more stable; settings: treatment: DMSO; c terminus: a fixed tail appended
Would you mind labelling by protein stability index? At or over 3 is True, under is False.

seq string | classification
PVPATAPSPAPAVAAAAAATTAAT [SNAP91] | True
RASPTRTAPLPMPEGPEPAAPGKQ [ELOA2] | True
KKYVKGDVSLCRWHPKPYCQALPY [FBXO34] | False
VGAAYASLRRRGASAAARLGCNRQ [TRIM14] | True
NSESWGWDIGRGKLYHQSKGPGAP [SPSB2] | True
SQAPVNKPKKKKEKKEKEKKKKDK [BRD3] | True
ERMTTREKKVLEAGMGKVTSASFG [HDAC6] | True
ICIMDAENITTVSVIKDHHTRSIT [WDR88] | False
LLFKYQMKEPITKAEILESVIKNY [MAGEA10] | False
VARPVRFPREHQFFEDGDVQRHLY [ZNF511] | True
EVTDKEQEFAARAAKQLEYQQLED [EPB41L3] | True
LGYCLLLMLAGMGLHYIAFRKVKQ [DNAJC4] | True
GSNEYTEGPSVVKRPAPRTAPRQE [SPRY1] | True
LRREPSERLTAPEILLHPWFESVL [TRIB1] | False
AWAAHTRLFQVVGKTDDTLALLNL [TMEM175] | False
DHCAQQDHGCEQLCLNTEDSFVCQ [MATN2] | True
KAKFCSTVANDVMLRTGLGVIRMW [NETO1] | False
WGPSGQLMGEIAKATFMYEQFPEL [CLINT1] | False
QVYYFGPCGKYNAMVLELLGPSLE [CSNK1G1] | True
VMSALWVSGLDSSYLREQMLNEPL [GAN] | False
CVPAHPPPCAWACPVPAHRRGSWR [CTBP1-DT] | False
NACATKEQKNHTFPRLNRNKYMVT [PLD5] | True
TRSCSSASSRSQQSSKRSSRSVED [CLK3] | True
ARQETKEMARKVIEHCSNFKEENM [ZER1] | True
LVFPSSSSSSSSQAPGQPPGNQAE [ZBTB22] | True

----------
assay: protein stability index of a GFP-peptide fusion (GPS, HEK-293T) (PSI 1-6); higher = more stable; details: treatment: MLN4924 1 uM, 8 h; c terminus: a fixed tail appended

seq string | protein stability index
NSVTAGDYSRPLHISTFINELDSG [TSN] | 3.71
IPNAASEEGDEDDWASNKVMFKIG [WEE1] | 4.28
TCFVRDGKTYCKRDYVRLFGIKCA [ISL2] | 2.17
PCVRPGVSGSPVTQNHAASALPTG [FBF1] | 4.5
DTGVGKSSIVWRFVEDSFDPNINP [RAB22A] | 3.08
WGPSGQLMGEIAKATFMYEQFPEL [CLINT1] | 2.06
RIYSYQMALTPVVVTLWYRAPEVL [CDK4] | 2.77
ICARACNATLTQYQLLATHVPTVW [RHOBTB2] | 2.41
AIPIEIKSIDDTSNFDDFPESDIL [STK38L] | 4.84
YERTLGQYQYERYGAVELSGAGRR [IRX6] | 3.81
SKVLSLQDLCCRAVVSCTPVHLVD [RAB40B] | 2.85
VGTRQNEELPCTCPLCTSDRGSCV [RHOBTB3] | 4.93
EELTYIIKQDINSLNKQIAQLQDF [STX5] | 2.85
LWDTSGQGRFCTIFRSYSRGAQGV [RAB40A] | 2.51
VVKEEISDDNAKLPCFNGRVVSWL [DVL3] | 3.19
EVTDKEQEFAARAAKQLEYQQLED [EPB41L3] | 5.62
SYSQSSNLFRHQRRHNAEKLLNVV [ZNF24] | 2.97
LVLKVLWNDFLMCYSSRPLLCWSV [SLC19A2] | 3.45
RKLSQGILIIRFEMPYNIWCDGCK [YJU2B] | 3.3
PTESEPVTINIQDLLSCSNFAVQH [MATN2] | 3.37
LKECLKKQLEFCFSRENLSKDLYL [LARP4] | 2.67
LCYPPAKGCLKLCRRCYDWIHRPG [SPRY1] | 2.27
NQNNYRLLSCGKILTGCKNMLFQQ [ACSBG2] | 2.3
DSLHPRPPYLPLAVPEDLADRLVR [FUT8] | 4.06
MIARCLLAVRSLRRVGGSRILLRM [NLN] | 2.05
MEDEMPKTLYVGNLSRDVTEALIL [TIA1] | 2.63
YNPDLKKVVEAHKIVLCAVSHVFM [RHOBTB3] | 2.97
